Biological target: Tyrosine-protein kinase Lck (Homo sapiens)
Sequence (P06239 whole entry): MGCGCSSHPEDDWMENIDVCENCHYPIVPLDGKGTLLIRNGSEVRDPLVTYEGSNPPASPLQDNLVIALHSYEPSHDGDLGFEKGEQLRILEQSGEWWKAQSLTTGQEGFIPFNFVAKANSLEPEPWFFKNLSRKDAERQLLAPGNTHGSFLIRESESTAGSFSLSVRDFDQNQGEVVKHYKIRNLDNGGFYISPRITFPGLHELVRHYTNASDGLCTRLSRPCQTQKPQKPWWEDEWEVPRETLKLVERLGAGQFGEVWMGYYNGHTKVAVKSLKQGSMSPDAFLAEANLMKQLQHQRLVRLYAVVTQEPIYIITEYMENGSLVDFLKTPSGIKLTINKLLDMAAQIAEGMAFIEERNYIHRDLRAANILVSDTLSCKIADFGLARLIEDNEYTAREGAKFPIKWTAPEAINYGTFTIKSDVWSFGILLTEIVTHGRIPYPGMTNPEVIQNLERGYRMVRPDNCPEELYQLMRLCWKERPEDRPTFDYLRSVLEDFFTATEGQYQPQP
Cut-off 600 µM on IC50: below means label 1, at or above means label 0.

Study these solved cases before continuing.
Is IC50 of N=c1oc2ccccc2cc1C(N)=O strictly below 600 µM?
label 0

Is IC50 of COC(=O)c1cc2ccc(O)c(O)c2cn1 strictly below 600 µM?
label 1

Is IC50 of COC(=O)c1ccc2c(O)c(O)ccc2c1 strictly below 600 µM?
label 1

Is IC50 of N#C/C(=C\c1cc(O)cc(O)c1)C(N)=O strictly below 600 µM?
label 1

Is IC50 of N#C/C(=C\c1ccc(O)cc1)C(N)=O strictly below 600 µM?
label 0

Is IC50 of N=c1oc2cc(O)c(O)cc2cc1C(N)=O strictly below 600 µM?
label 0

Is IC50 of N#C/C(=C\c1ccc(O)c(O)c1)C(N)=O strictly below 600 µM?
label 1

Is IC50 of N#C/C(=C\c1cc(O)c(O)c(O)c1)C(N)=O strictly below 600 µM?
label 0

New cases:
Is IC50 of NC(=O)c1ccc2cc(O)c(O)cc2c1 strictly below 600 µM?
label 1
